TEST SYSTEM: CDK4 (Homo sapiens, UniProt P11802)
Construct: endogenous in cells
Sequence (P11802 whole entry): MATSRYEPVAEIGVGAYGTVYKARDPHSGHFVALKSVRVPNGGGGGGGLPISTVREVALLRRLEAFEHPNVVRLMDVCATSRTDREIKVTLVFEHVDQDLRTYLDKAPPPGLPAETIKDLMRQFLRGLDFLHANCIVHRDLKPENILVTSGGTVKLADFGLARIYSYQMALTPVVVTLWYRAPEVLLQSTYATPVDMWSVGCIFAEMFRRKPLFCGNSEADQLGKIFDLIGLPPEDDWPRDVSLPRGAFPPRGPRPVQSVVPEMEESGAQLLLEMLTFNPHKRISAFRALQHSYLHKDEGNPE
METHOD: CDK4 degradation (DC50, Dmax)
Format: cell-based
ATTRIBUTE MEASURED: DC50

# COMPOUND, OBS VALUE
records = [
    ("Cc1nc2c(F)cc(-c3nc(Nc4ccc(CN5CCN(C(=O)C6CCN(c7ccc(C(=O)NC8CCC(=O)NC8=O)cc7)CC6)CC5)cn4)ncc3F)cc2n1C(C)C (centres unmarked)", "0.05 to 0.2 µM"),
    ("CC(=O)c1c(C)c2cnc(Nc3ccc(N4CCN(C(=O)N5CCN(CC6CCN(c7ccc8c(c7)CN(C7CCC(=O)NC7=O)C8=O)CC6)CC5)CC4)cn3)nc2n(C2CCCC2)c1=O (centres unmarked)", "> 0.2 µM"),
    ("CC(=O)c1c(C)c2cnc(Nc3ccc(C4CCN(CC5CN(c6ccc7c(c6)C(=O)N(C6CCC(=O)NC6=O)C7=O)C5)CC4)cn3)nc2n(C2CCCC2)c1=O (centres unmarked)", "< 0.05 µM"),
]

Report DC50 for CC(=O)c1c(C)c2cnc(Nc3ccc(N4CCN(CCNc5ccc6c(c5)CN(C5CCC(=O)NC5=O)C6=O)CC4)cn3)nc2n(C2CCCC2)c1=O (centres unmarked) please.
< 0.05 µM

Lookup CC(=O)c1c(C)c2cnc(Nc3ccc(N4CCN(C(=O)N5CCC(CCN6CCN(c7ccc8c(c7)C(=O)N(C7CCC(=O)NC7=O)C8=O)CC6)CC5)CC4)cn3)nc2n(C2CCCC2)c1=O (centres unmarked)
0.05 to 0.2 µM
